The reported measurements were obtained from ChEMBL document CHEMBL1201862.

Test system: SF-295
ASSAY TEXT: NCI tumour cell line growth inhibition, 48 h
The source made the active and inactive calls. Cut-off read from the data, not from the text of the source: active = GI50 up to about 1.1 µM and inactive = higher.
PROPERTY MEASURED: GI50

C=C1CC[C@@H](C)[C@](C)(CCc2ccoc2)C/C=C\C=C/1C(=O)O; 38.8 µM (inactive)

Please turn your attention to the following entry.
Query: Recorded GI50 for `O=C(C[N+]1(c2ccccc2)CCOCC1)c1ccccc1` , please?
Result: > 100 µM (inactive)

---

Tested on: COLO 205
ASSAY TEXT: NCI tumour cell line growth inhibition, 48 h
The source made the active and inactive calls. Rule as the data show it: active = GI50 up to about 1.1 µM and inactive = higher.
PROPERTY MEASURED: GI50

Known GI50 results, listed for orientation:
O=C1C2=C(c3ccccc31)C(c1cccc(Cl)c1)NC(S)=N2 (stereo not given); > 100 µM (inactive)
N#CC(N)(C(=O)C(=O)NCCCNC(=O)C(=O)C(N)(C#N)c1ccc(Cl)cc1)c1ccc(Cl)cc1 (stereo not given); > 100 µM (inactive)
Cc1ccc(Nc2nc3c(=O)n(C)c(=O)n(C)c3nc2Nc2ccc(C)cc2)cc1; 4.67 µM (inactive)

Query: Record request: GI50 value, item CC(=O)NC(CCCN)C(=O)NCc1ccccc1 (stereo not given)
Result: > 100 µM (inactive)

Query: Any idea what its GI50 is? The molecule is CCc1cc2c(cc1CCCC(=O)O)CC1(Cc3ccc(C(=O)O)cc3C1)C2 (stereo not given)
Result: > 100 µM (inactive)

---

Here, each record is paired with measured GI50 data.
Tested on: EKVX
ASSAY TEXT: NCI tumour cell line growth inhibition, 48 h
Active and inactive are the calls of the source. No stated cut-off is given here; in the data, active = GI50 up to about 1.1 µM and inactive = higher.

Recorded results for 3 compounds are shown here.
CC1=C(C(=O)Nc2ccc([N+](=O)[O-])cc2)C(c2ccco2)C(C(=O)Nc2ccc([N+](=O)[O-])cc2)=C(C)N1; 3.63 µM (inactive)
CCn1c(=O)c2c(=O)[nH][nH]c2c2ccccc21; > 100 µM (inactive)
CO[C@@H]1C[C@H]2[C@@H]3CC[C@H]([C@@H](C)COC(C)=O)[C@@]3(C)CC[C@@H]2[C@@]2(C)CC[C@H]3C[C@]312; 14.5 µM (inactive)

Query: What does the record list as GI50 for `COc1cc2cc[n+](C)c(Cc3ccccc3)c2cc1OC` ?
Result: > 100 µM (inactive)

Query: Quick one: GI50 of `Cc1[nH]c(=O)[nH]c(=O)c1C(=O)N(CCO)Cc1ccccc1` ?
Result: > 100 µM (inactive)

Query: Consider the compound shown here: CC(=O)C1C(=O)NC(=O)C1=O (centres undefined) What is its recorded GI50?
Result: > 100 µM (inactive)

Query: Please report the recorded GI50 for `CCOC(=O)CN(Cc1ccccc1)Cc1c(C(=O)c2ccccc2)c2ccccc2n1C(=O)c1ccccc1` .
Result: > 100 µM (inactive)

Query: Find the recorded GI50 belonging to `CC(=O)Nc1oc(C)nc1C#N` and report it.
Result: > 100 µM (inactive)

Query: Look up GI50 for this compound: CC(=O)Nc1c(C)cc2c(nc3n2CCC3O)c1[N+](=O)[O-] (centres undefined)
Result: > 100 µM (inactive)

---

Listed next: entries and their corresponding GI50.
System: EKVX
ASSAY TEXT: NCI tumour cell line growth inhibition, 48 h
The source made the active and inactive calls. No stated cut-off is given here; in the data, active = GI50 up to about 1.1 µM and inactive = higher. Non-standard residues stand in square brackets, D forms with d. Residues, ends and D or L forms follow the SMILES beside them. ξ: configuration not given here. *: point of attachment. ξHyp = O=C(O)C1CC(O)CN1; Cbz = O=C(OCc1ccccc1)*

COC(=O)C1=C(C)NC(C)=C(C(=O)OC)C1c1ccc(N=O)cc1; 17 µM (inactive)
C=CCn1cnc2c(O)nc(Nc3ccccc3)nc21; > 100 µM (inactive)
COc1cc([C@@H]2C3C(=O)c4ccccc4C3[C@@H](c3cc(OC)c(OC)c(OC)c3)C23Cc2ccccc2C3=O)cc(OC)c1OC (stereo not given in full); > 100 µM (inactive)
[N-]=[N+]=CC(=O)OCC1NC(=O)C(COC(=O)C=[N+]=[N-])NC1=O (stereo not given); > 100 µM (inactive)
CCCCCCCCCCCC[C@@H](O)[C@H]1CCC([C@H](O)CCCCC(=O)CCCCCCCC2=C[C@H](C)OC2=O)O1 (stereo not given in full); 14.1 µM (inactive)
CCc1cc2c(cc1CCCC(=O)O)CC1(Cc3ccc(C(=O)O)cc3C1)C2 (stereo not given); > 100 µM (inactive)
NC(=O)CNC(=O)C1CC(O)CN1C(=O)OCc1ccccc1 (stereo not given) (Cbz-[ξHyp]-Gly-NH2); 41.4 µM (inactive)
CC(C)C1COC(C(C)(C)C2=N[C@@H](C(C)C)CO2)=N1 (stereo not given in full); > 100 µM (inactive)
O=C(O)Cc1cc(=O)[nH]c2c1C(=O)CCC2; > 100 µM (inactive)
C[C@@]1(O)C2C3CC4C5C3C1[C@](O)(C42)[C@H]5Br (stereo not given in full); > 100 µM (inactive)

Query: What value of GI50 has been reported for the following molecule? O=C(OC1C2OC(=O)c3cc(O)c(O)c(O)c3Oc3cc4c(c(O)c3O)-c3c(cc(O)c(O)c3O)C(=O)OCC3OC(O)C(OC(=O)c5cc(O)c(O)c(O)c5Oc5cc6c(c(O)c5O)-c5c(cc(O)c(O)c5O)C(=O)OC1C(COC6=O)OC2O)C(OC(=O)c1cc(O)c(O)c(O)c1)C3OC4=O)c1cc(O)c(O)c(O)c1 (stereo not given)
Result: 12.5 µM (inactive)

Query: Entry under review: O=C1C(Cl)C(c2cccc(Cl)c2)N1c1ccc(-n2c(S)nc3ccccc3c2=O)cc1 (stereo not given) . Reported GI50?
Result: 32.1 µM (inactive)
